Recorded values, source ChEMBL document CHEMBL1938343.

- test_method_notes: Apparent permeability across basolateral to apical side in human Caco2 cells at 10 uM
- Format: ADME, cell-based
- condition_parameters: Caco-2
Would you kindly list Papp B→A at 10 µM for each of these molecules?
Give bare numbers, in ×10⁻⁶ cm/s.

# molecule, Papp B→A at 10 µM (×10⁻⁶ cm/s)
data = [
    ("Cc1cc(CN(C)C(=O)c2ccc(Oc3ccc(C#C[C@]4(O)CN5CCC4CC5)cc3)cc2)on1", 53),
    ("CNC(=O)c1ccc(Oc2ccc(C#C[C@]3(O)CN4CCC3CC4)cc2)cc1", 34),
    ("CN1CCC(NC(=O)c2ccc(Oc3ccc(C#C[C@]4(O)CN5CCC4CC5)cc3)cc2)CC1", 7.4),
    ("O=C(NCc1ccncn1)c1ccc(Oc2ccc(C#C[C@]3(O)CN4CCC3CC4)cc2)cc1", 33),
]

If you can, please state the reported Papp B→A at 10 µM value of O=C(NC1CCCS(=O)(=O)C1)c1ccc(Oc2ccc(C#C[C@]3(O)CN4CCC3CC4)cc2)cc1 (single isomer, unassigned; diastereomer 1) .
43.5
